Quick list: Relative potency per entry.
- Test system: Breast cancer cell line
- experimentalDetails: Potency relative to progesterone in reducing the difference in reversal of DOX accumulation between MDA-435/LCC6 and MDA-435/LCC6-MDRI cells
- Type: functional, Homo sapiens
Simply state the number, no unit and no words.

-- ask I'd like to know its Relative potency. The compound in question is CCNC(=O)Nc1ccc(S[C@@H]2CC3=CC(=O)CC[C@]3(C)C3CC[C@]4(C)C(C(C)=O)CCC4C32)cc1 (some centres undefined)
-- reply 31.3

-- ask I'd like to know its Relative potency. The compound in question is CC(=O)[C@H]1CCC2C3C(CC[C@@]21C)[C@@]1(C)CCC(=O)C=C1C[C@H]3Sc1ccc(NC(=O)N[C@H](C)c2ccccc2)cc1 (some centres undefined)
-- reply 37.2

-- ask I'd like to know its Relative potency. The compound in question is CC(=O)[C@H]1CCC2C3C(CC[C@@]21C)[C@@]1(C)CCC(=O)C=C1C[C@H]3Sc1ccc(NC(=O)NS(=O)(=O)c2ccc(C)cc2)cc1 (some centres undefined)
-- reply 1.5

-- ask I'd like to know its Relative potency. The compound in question is CC(=O)C1CCC2C3C(CC[C@]12C)[C@@]1(C)CCC(=O)C=C1C[C@H]3Sc1ccc(NC(=O)NCCCl)cc1 (some centres undefined)
-- reply 40.5

###

- experimentalDetails: Growth inhibitory activity on MDA-435/LCC6 ([…]) human breast cancer cells.
- Assay type: functional, cell-based
- testConditions: Cancer cell lines
endpoint: IC50 (µM)
Numbers only here, please. The scale is µM.

Take a look at these entries with their results.
CC(=O)[C@H]1CC[C@H]2[C@@H]3CCC4=CC(=O)CC[C@]4(C)[C@H]3CC[C@]12C [PROGESTERONE]    27.4
COc1ccc(CCN(C)CCCC(C#N)(c2ccc(OC)c(OC)c2)C(C)C)cc1OC (centres undefined)    65.8
CC(=O)[C@H]1CCC2C3C(CC[C@@]21C)[C@@]1(C)CCC(=O)C=C1C[C@H]3Sc1ccc(NC(=O)NS(=O)(=O)c2ccc(C)cc2)cc1 (some centres undefined)    22.1

Next compound, please.
-- ask I'd like to know its IC50. The compound in question is CC(=O)C1CCC2C3C(CC[C@]12C)[C@@]1(C)CCC(=O)C=C1C[C@H]3Sc1ccc(NC(=O)NCCCl)cc1 (some centres undefined)
-- reply 3.2

###

- experimentalDetails: Effect on reversal of [3H]- VBL accumulation in MDA-435/LCC6 (Pgp-negative) cells.
- Format: functional
- testConditions: Homo sapiens
endpoint: pEC50
Remember, pEC50 is on a log scale: it is -log10 of the molar concentration.

CC(=O)[C@H]1CCC2C3C(CC[C@@]21C)[C@@]1(C)CCC(=O)C=C1C[C@H]3Sc1ccc(NC(=O)N[C@H](C)c2ccccc2)cc1 (stereo not given in full)    6.15
CC(=O)[C@H]1CC[C@H]2[C@@H]3CCC4=CC(=O)CC[C@]4(C)[C@H]3CC[C@]12C [PROGESTERONE]    4.68
CC(=O)[C@H]1CCC2C3C(CC[C@@]21C)[C@@]1(C)CCC(=O)C=C1C[C@H]3Sc1ccc(NC(=O)NS(=O)(=O)c2ccc(C)cc2)cc1 (stereo not given in full)    4.48
CCNC(=O)Nc1ccc(S[C@@H]2CC3=CC(=O)CC[C@]3(C)C3CC[C@]4(C)C(C(C)=O)CCC4C32)cc1 (stereo not given in full)    5.82

-- ask I'd like to know its pEC50. The compound in question is CC(=O)C1CCC2C3C(CC[C@]12C)[C@@]1(C)CCC(=O)C=C1C[C@H]3Sc1ccc(NC(=O)NCCCl)cc1 (stereo not given in full)
-- reply 6.05
